Biological target: human ether-à-go-go-related gene (hERG) potassium channel (human, UniProt Q12809);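 also: peak tail current of the secondary pulse compared with the same well before compound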
Sequence (Q12809 whole entry, looked up): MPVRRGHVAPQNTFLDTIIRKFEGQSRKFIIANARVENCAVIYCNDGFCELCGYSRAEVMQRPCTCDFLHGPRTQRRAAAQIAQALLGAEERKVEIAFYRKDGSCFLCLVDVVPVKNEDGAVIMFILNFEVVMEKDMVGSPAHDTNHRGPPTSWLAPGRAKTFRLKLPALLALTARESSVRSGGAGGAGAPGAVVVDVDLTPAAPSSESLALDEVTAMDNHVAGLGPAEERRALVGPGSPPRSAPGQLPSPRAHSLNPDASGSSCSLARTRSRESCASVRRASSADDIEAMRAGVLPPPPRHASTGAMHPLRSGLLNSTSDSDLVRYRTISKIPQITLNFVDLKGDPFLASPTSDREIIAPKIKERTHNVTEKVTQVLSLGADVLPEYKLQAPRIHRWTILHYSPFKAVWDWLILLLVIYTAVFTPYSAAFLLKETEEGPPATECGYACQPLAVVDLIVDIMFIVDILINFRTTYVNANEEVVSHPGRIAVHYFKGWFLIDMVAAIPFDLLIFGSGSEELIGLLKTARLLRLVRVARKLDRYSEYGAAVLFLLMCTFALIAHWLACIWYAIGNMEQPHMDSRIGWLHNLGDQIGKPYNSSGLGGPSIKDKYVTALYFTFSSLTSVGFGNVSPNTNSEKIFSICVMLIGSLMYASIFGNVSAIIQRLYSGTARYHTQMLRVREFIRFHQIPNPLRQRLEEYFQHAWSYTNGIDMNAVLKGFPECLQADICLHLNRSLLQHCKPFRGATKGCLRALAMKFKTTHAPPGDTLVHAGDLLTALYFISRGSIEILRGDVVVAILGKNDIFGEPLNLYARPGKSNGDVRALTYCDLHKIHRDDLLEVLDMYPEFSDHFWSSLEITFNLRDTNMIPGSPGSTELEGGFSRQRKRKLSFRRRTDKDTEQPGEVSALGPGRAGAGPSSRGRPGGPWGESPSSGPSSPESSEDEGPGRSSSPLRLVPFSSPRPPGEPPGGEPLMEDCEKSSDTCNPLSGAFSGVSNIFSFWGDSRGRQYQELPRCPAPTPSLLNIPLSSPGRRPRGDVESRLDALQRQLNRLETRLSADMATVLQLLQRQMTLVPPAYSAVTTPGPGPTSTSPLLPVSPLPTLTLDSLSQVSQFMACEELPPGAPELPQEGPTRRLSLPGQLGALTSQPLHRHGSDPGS
Assay: primary screen, population patch clamp on CHO cells stably expressing hERG; higher = less effect of the substance
Hit rate of the full screen: of about 310,000 compounds, about 14,000 (4.5%) showed an effect of 50% or more. The effect is printed as a negative number. The list comes from a sample in which strong results are over-represented; it also holds close analogues and randomly drawn compounds.
hERG current change (%, negative = inhibition) at 10uM overview
A number alone suffices; assume %.

Some solved entries appear below for comparison.
• CCCNC(=O)CCc1c(C)nc2c(c(C)nn2-c2ccc(C)cc2)c1C = -0.266
• Cc1nc2c(c(C)nn2-c2ccccc2)c(C)c1CCC(=O)NCCCOC(C)C = -34.7
• CCc1c(C)nc2cc(-c3cc(OC)cc(OC)c3)nn2c1N1CCCC1 = -2.11

Q: # query: hERG current change (%, negative = inhibition) at 10uM of entry "CCOCCN1CCN(c2c(CC)c(C)nc3cc(-c4cc(OC)cc(OC)c4)nn23)CC1"
A: -72.4

Q: # hERG current change (%, negative = inhibition) at 10uM lookup, item "CN(CC#CC(O)(c1ccccc1)c1ccccc1)C(C)(C)C"
A: -69

Q: Give the measured hERG current change (%, negative = inhibition) at 10uM of "COCCNC(=O)CCc1c(C)nc2c(c(C)nn2-c2ccc(C)c(C)c2)c1C" .
A: -3.85

----------
Recorded measurements of hERG current change (%, negative = inhibition) at 10uM, one per entry
Target: human ether-à-go-go-related gene (hERG) potassium channel (human);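 also: peak tail current of the secondary pulse compared with the same well before compound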
Assay: primary screen, population patch clamp on CHO cells stably expressing hERG; higher = less effect of the substance
Screen size: about 310,000 compounds; about 14,000 (4.5%) showed an effect of 50% or more. Effects have a minus sign here. Many of the other results were omitted from the sample, so strong results are more common in it than they were.
Give the number; % is assumed, so skip it.

Below, each entry is followed by its recorded hERG current change (%, negative = inhibition) at 10uM result.
- CCOc1ccc(CCNC(=O)CCS(=O)(=O)c2ccc(Br)cc2)cc1OCC: 13.8
- O=C(c1cccc(F)c1)N1CCN(c2cc(N3CCCCC3)c(F)cc2[N+](=O)[O-])CC1: 0.466
- COc1ccc(CN2C(=O)Cc3c2nc(N)c2c(N)nc(N4CCOCC4)c(C#N)c32)cc1: -36.8
- O=C(c1ccccc1F)N1CCN(c2ccc([N+](=O)[O-])c(N3CCOCC3)c2)CC1: 14.2
- O=C(c1cccc(F)c1)N1CCN(c2ccc([N+](=O)[O-])c(N3CCCCC3)c2)CC1: -6.87

Q: Quick one: hERG current change (%, negative = inhibition) at 10uM for "COc1ccc(NC(=O)c2ccccc2NC(=O)c2ccco2)c(OC)c1" ?
A: -73.4

Q: Could you tell me which hERG current change (%, negative = inhibition) at 10uM is on file for "O=C(CN1CCN(Cc2ccccc2)CC1)Nc1cccc(Br)c1" ?
A: -51.7

Q: Recorded hERG current change (%, negative = inhibition) at 10uM for "O=C(c1ccccc1F)N1CCN(c2ccc([N+](=O)[O-])c3ncccc23)CC1" , please?
A: -68.1

----------
Biological target: human ether-à-go-go-related gene (hERG) potassium channel (human, UniProt Q12809);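 also: peak tail current of the secondary pulse compared with the same well before compound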
Assay: primary screen, population patch clamp on CHO cells stably expressing hERG; higher = less effect of the substance
Screen size: about 310,000 compounds; about 14,000 (4.5%) showed an effect of 50% or more. The effect is printed as a negative number. For the sample, strong results were picked, then their nearest neighbours and some compounds at random.
Decision: hERG current change (%, negative = inhibition) at 10uM compared against -10%; not below it gives Fulfilled, below it gives Not fulfilled.

Q: State whether the measured hERG current change (%, negative = inhibition) at 10uM reaches -10%, counting equality as reaching it, for COc1ccc(NC(=O)C2C(=O)N(C)C3(C)CC2c2ccccc2O3)cc1 (centres unmarked)
A: Not fulfilled

Q: Does Cc1ccc(NC2c3ccccc3C(=O)N2c2cccnc2)cc1 (centres unmarked) have a reported hERG current change (%, negative = inhibition) at 10uM of at least -10%?
A: Not fulfilled

Q: Identify whether the reported hERG current change (%, negative = inhibition) at 10uM of the following compound is -10% or greater: "COCCNC(=O)CCC1CCN(C/C=C/c2ccccc2OC)CC1"
A: Fulfilled

Q: Has "CCOC(=O)c1ccc(Cl)c(NC(=O)c2ccc(-c3ccccc3)cc2)c1" a recorded hERG current change (%, negative = inhibition) at 10uM greater than or equal to -10%?
A: Fulfilled

Q: Decide: hERG current change (%, negative = inhibition) at 10uM of CSc1ccc(C(=O)C2CCCN(Cc3cnc(SC)nc3)C2)cc1 (centres unmarked) >= -10%?
A: Not fulfilled

Q: Form field: hERG current change (%, negative = inhibition) at 10uM at least -10%? Entry: COc1ccc(CCC(C)NCc2ccc(F)cc2)cc1 (centres unmarked)
A: Not fulfilled

Q: Please check the record "COc1cccc(NC(=O)CSc2nnc(-c3ccco3)c(-c3ccco3)n2)c1" and state if its hERG current change (%, negative = inhibition) at 10uM is at or above -10%.
A: Not fulfilled

Q: Check this compound for hERG current change (%, negative = inhibition) at 10uM at or above -10%: COc1ccc(C(=O)N2CCCC(CCC(=O)NCc3ccc(F)c(F)c3)C2)cc1F (centres unmarked)
A: Not fulfilled

Q: Hello, I need to know if "O=C(CSc1nnc(-c2ccco2)c(-c2ccco2)n1)c1ccccc1" has measured hERG current change (%, negative = inhibition) at 10uM not below -10%. Thanks!
A: Fulfilled
